- method description: viability loss with induced miR-34 in A549 – imaging, A549 dox-inducible miR-34, nuclei and caspase counts, primary screen (AID 1347080)
- assay context: A549 miR-34 inducible, Hoechst nuclei count, 48 h; measured here: total cells with miR-34 induction; stronger effect = lower value
Consider the following molecules; for each one, report its cell count.
Answers are plain numbers.

Guide cases for cell count, answers given:
| chemical structure | cell count |
| --- | --- |
| CCN(CC)C(=O)CCC/C=C\C[C@@H]1[C@@H](/C=C/[C@@H](O)CCc2ccccc2)[C@H](O)C[C@@H]1O | 5990 |
| COc1ccc2[nH]c(-c3ccccc3)c(CCNC(C)=O)c2c1 | 7770 |
| CCCCC[C@H](O)/C=C/[C@@H]1[C@H](CCCCCCC(=O)O)[C@H](O)C[C@H]1O | 6030 |
| CCOC(=O)c1c(CSc2ccccc2)n(C)c2cc(Br)c(O)c(CN(C)C)c12 | 6100 |

As a next step, examine the molecule that follows.
Ask: Respond only with cell count recorded for "CN(Cc1ccccc1)C(=O)[C@H](Cc1ccc2ccccc2c1)NC(=O)[C@@H]1C[C@@H](O)CN1C(=O)c1cn(C)c2ccccc12"
Result: 6080

---

- method description: growth inhibition, single agents and combos, HTB85, cell-based, BGB or cisplatin IC20 combos, synergistic combos for chromothripsis tumors (AID 1671453);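 note: cells exposed for 96 hours before readout; 0% = vehicle DMSO and 100% = high DMSO killing control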
- assay context: HTB85 osteosarcoma cells, drug combinations, measured here: with cisplatin IC20, at 0.5 µM, stronger effect = higher value
Consider the following compounds; for each one, report its inhibition.
One number for each entry, in %.

| chemical structure | unit name | inhibition |
| --- | --- | --- |
| O=C(O)CO.[NH2-].[NH2-].[Pt+2] | % | -15.5 |
| CC(C)OC(=O)[C@H](C)N[P@](=O)(OC[C@H]1O[C@@H](n2ccc(=O)[nH]c2=O)[C@](C)(F)[C@@H]1O)Oc1ccccc1 | % | -3.56 |
| CO[C@H]1/C=C/O[C@@]2(C)Oc3c(C)c(O)c4c(O)c(c(/C=N\N5CCN(C6CCCC6)CC5)c(O)c4c3C2=O)NC(=O)/C(C)=C\C=C\[C@H](C)[C@H](O)[C@@H](C)[C@@H](O)[C@@H](C)[C@H](OC(C)=O)[C@@H]1C | % | 35.8 |

Ask: Respond only with inhibition recorded for "CCCCc1nc2cc(/C=C/C(=O)NO)ccc2n1CCN(CC)CC"
Result: 61.5

---

- method description: viability loss in pontine glioma line – cell-based, SU-DIPG-XIII, MIPE4.0, CellTiter-Glo, qHTS, dose response (AID 1347061);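 note: cells exposed to compound for 48 hours before readout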
- assay context: CellTiter-Glo ATP luminescence
Inconclusive results are not listed. The source made the active and inactive calls. No cut-off is given here; in the data, nearly all actives have AC50 up to about 37 µM.
Return exactly one item of y (active), n (inactive)

Observe how each entry below is paired with its result.
| compound | classification |
| --- | --- |
| Cc1cn2c(-c3cn[nH]c3)cnc2c(Nc2ccc(C(=O)N3CCNCC3)cc2F)n1 | y |
| COC(=O)C[C@](O)(CCCC(C)(C)O)C(=O)O[C@@H]1C(OC)=CC23CCCN2CCc2cc4c(cc2[C@H]13)OCO4 (stereo not given in full) | n |
| NC(=O)c1cccc(-c2cccc(OC(=O)NC3CCCCC3)c2)c1 | n |

Ask: Would you mind telling me which call this test gave "Cc1ccnc(NS(=O)(=O)c2ccc(NC(=O)Nc3ccc(S(=O)(=O)Nc4nccc(C)n4)cc3)cc2)n1" ?
Result: n

Ask: Would you mind telling me which call this test gave "O=C(/C=C/c1cccnc1)NCCCCC1CCN(C(=O)c2ccccc2)CC1" ?
Result: y

Ask: Would you mind telling me which call this test gave "Clc1cc(Cl)cc(CNc2ncncc2-c2ccc3c(c2)OCO3)c1" ?
Result: n

Ask: Would you mind telling me which call this test gave "C1Cc2[nH]nc(-c3nn[nH]n3)c2C1" ?
Result: n

Ask: Would you mind telling me which call this test gave "Cc1ccc(C(=O)Nc2cccc(C(F)(F)F)c2)cc1Nc1nc(-c2cccnc2)nc2c1cnn2C" ?
Result: n

Ask: Would you mind telling me which call this test gave "CC[C@H](C)n1cc(C)c2c(C(=O)NCc3c(C)cc(C)[nH]c3=O)cc(-c3ccc(N4CCNCC4)nc3)cc21" ?
Result: y

Ask: Would you mind telling me which call this test gave "COc1cc(=C2C=c3ccccc3=N2)[nH]/c1=C/c1[nH]c(C)cc1C" ?
Result: y

---

- method description: drug combination growth inhibition, ovarian cancer – cell-based, oncology-focused library, rucaparib conditional, profiling panel (AID 1508598)
- assay context: patient-derived ovarian cancer cells, CellTiter-Glo viability, 144 h; at 5 µM; OCI-P5x cells; with rucaparib 20 µM; 100% = cells with rucaparib alone
Active and inactive are the calls of the source.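 How the source made its calls: active means normalized viability below 100% at a tested concentration; inactive means the rest.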
Return exactly one item of active, inactive

Observe how each entry below is paired with its result.
| compound | classification |
| --- | --- |
| CCCCc1nc2cc(/C=C/C(=O)NO)ccc2n1CCN(CC)CC | active |
| Cc1ccc(NC(=O)c2cccc(C(C)(C)C#N)c2)cc1Nc1ccc2ncn(C)c(=O)c2c1 | active |

Ask: Would you mind telling me which call this test gave "O=C(/C=C/c1cccc(S(=O)(=O)Nc2ccccc2)c1)NO" ?
Result: active

Ask: Would you mind telling me which call this test gave "CCCS(=O)(=O)Nc1ccc(F)c(C(=O)c2c[nH]c3ncc(-c4ccc(Cl)cc4)cc23)c1F" ?
Result: active

Ask: Would you mind telling me which call this test gave "Cc1cccc(-c2[nH]c(C(C)(C)C)nc2-c2ccc3nccnc3c2)n1" ?
Result: inactive

Ask: Would you mind telling me which call this test gave "C=C(c1ccc(C(=O)O)cc1)c1cc2c(cc1C)C(C)(C)CCC2(C)C" ?
Result: inactive

Ask: Would you mind telling me which call this test gave "CCN(CCO)CCCOc1ccc2c(Nc3cc(CC(=O)Nc4cccc(F)c4)[nH]n3)ncnc2c1" ?
Result: active

Ask: Would you mind telling me which call this test gave "C[C@@H](Oc1cc(-n2cnc3ccc(CN4CCN(C)CC4)cc32)sc1C(N)=O)c1ccccc1C(F)(F)F" ?
Result: active

Ask: Would you mind telling me which call this test gave NC(=O)C1CCCc2c1[nH]c1ccc(Cl)cc21 (stereo not given) ?
Result: active

Ask: Would you mind telling me which call this test gave "Nc1nccc(Oc2ccc(NC(=O)c3c[nH]cc(-c4ccc(F)cc4)c3=O)cc2F)c1Cl" ?
Result: active

Ask: Would you mind telling me which call this test gave "CC(=O)c1c(C)c2cnc(Nc3ccc(N4CCNCC4)cn3)nc2n(C2CCCC2)c1=O" ?
Result: inactive

Ask: Would you mind telling me which call this test gave "CC(=O)Nc1nc(C)c(-c2ccc(Cl)c(S(=O)(=O)NCCO)c2)s1" ?
Result: active

Ask: Would you mind telling me which call this test gave "CCC(CC)CC1(C(=O)Nc2ccccc2SC(=O)C(C)C)CCCCC1" ?
Result: inactive

Ask: Would you mind telling me which call this test gave "CCNC(=O)c1noc(-c2cc(C(C)C)c(O)cc2O)c1-c1ccc(CN2CCOCC2)cc1" ?
Result: active

Ask: Would you mind telling me which call this test gave "Nc1ccn([C@@H]2O[C@H](CO)[C@@H](O)C2(F)F)c(=O)n1" ?
Result: active

Ask: Would you mind telling me which call this test gave "Cn1cc(-c2ccc3nnc(Sc4ccc5ncccc5c4)n3n2)cn1" ?
Result: active

Ask: Would you mind telling me which call this test gave "CCn1c(-c2nonc2N)nc2c(C#CC(C)(C)O)ncc(OC[C@H]3CCCNC3)c21" ?
Result: active

Ask: Would you mind telling me which call this test gave "Cc1ccc(C(=O)Nc2ccc(CN3CCN(C)CC3)c(C(F)(F)F)c2)cc1C#Cc1cnc2cccnn12" ?
Result: active

Ask: Would you mind telling me which call this test gave "COc1cc2nccc(Oc3ccc(NC(=O)C4(C(=O)Nc5ccc(F)cc5)CC4)cc3)c2cc1OC" ?
Result: active

Ask: Would you mind telling me which call this test gave "Cc1ccc(S(=O)(=O)Nc2nc3ccccc3nc2Nc2ccc3nsnc3c2)cc1" ?
Result: active

Ask: Would you mind telling me which call this test gave "CC(C)c1cc(-c2n[nH]c(=O)n2-c2ccc3c(ccn3C)c2)c(O)cc1O" ?
Result: active

---

- method description: drug combination growth inhibition, ovarian cancer – cell-based, oncology-focused library, rucaparib conditional, profiling panel (AID 1508598)
- assay context: patient-derived ovarian cancer cells, CellTiter-Glo viability, 144 h; at 0.00122 µM; OCI-P5x cells; without rucaparib; stronger effect = lower value
Consider the following molecules; for each one, report its viability.
Numbers only, in %.

| chemical structure | viability [%] |
| --- | --- |
| CCCCCCCCc1ccc(CCC(N)(CO)CO)cc1 | 98 |
| COCCOc1nc(-c2ccc(Cl)c(Cl)c2)n(-c2ccc(NC(=O)CCl)cc2)n1 | 103 |
| CCOc1cc2ncc(C#N)c(Nc3ccc(F)c(Cl)c3)c2cc1NC(=O)/C=C/CN(C)C | 119 |

# batch size: 3; output viability per entry
1. CC1(C)CCC(c2ccc(Cl)cc2)=C(CN2CCN(c3ccc(C(=O)NS(=O)(=O)c4ccc(N[C@H](CCN5CCOCC5)CSc5ccccc5)c(S(=O)(=O)C(F)(F)F)c4)cc3)CC2)C1
2. Cc1ccc(C(=O)N(CCCN)[C@@H](c2oc3cc(Cl)ccc3c(=O)c2Cc2ccccc2)C(C)C)cc1
3. Nc1ccc(-c2ccc3ncc4ccc(=O)n(-c5cccc(C(F)(F)F)c5)c4c3c2)cn1

Result:
[106, 19.3, 90.5]
